The values you see were collected from patent US8697722B2.

target: rat α3β4 receptors (Rattus norvegicus, UniProt P04757+P12392); construct: expressed in transfected cells; host or cells: HEK cells (KXα3β4R2); assay: [3H]epibatidine competition binding on membranes of HEK cells transfected with rat α3β4 receptors; details: read-out: Binding affinities α3β4 (Ki)
Sequence (P04757 26-499): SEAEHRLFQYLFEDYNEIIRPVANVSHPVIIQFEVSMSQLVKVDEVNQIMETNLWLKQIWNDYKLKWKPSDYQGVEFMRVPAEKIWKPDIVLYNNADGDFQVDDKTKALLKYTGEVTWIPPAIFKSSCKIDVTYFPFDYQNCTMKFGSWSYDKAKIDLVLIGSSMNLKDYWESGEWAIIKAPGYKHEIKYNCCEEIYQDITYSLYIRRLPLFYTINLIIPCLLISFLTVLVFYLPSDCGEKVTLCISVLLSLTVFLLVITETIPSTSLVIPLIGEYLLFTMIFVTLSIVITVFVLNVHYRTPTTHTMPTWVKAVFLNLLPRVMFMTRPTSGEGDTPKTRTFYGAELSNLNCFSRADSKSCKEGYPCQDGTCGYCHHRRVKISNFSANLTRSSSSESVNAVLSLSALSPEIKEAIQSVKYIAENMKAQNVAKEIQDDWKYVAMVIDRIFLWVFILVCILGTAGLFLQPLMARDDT
Sequence (P12392 21-495): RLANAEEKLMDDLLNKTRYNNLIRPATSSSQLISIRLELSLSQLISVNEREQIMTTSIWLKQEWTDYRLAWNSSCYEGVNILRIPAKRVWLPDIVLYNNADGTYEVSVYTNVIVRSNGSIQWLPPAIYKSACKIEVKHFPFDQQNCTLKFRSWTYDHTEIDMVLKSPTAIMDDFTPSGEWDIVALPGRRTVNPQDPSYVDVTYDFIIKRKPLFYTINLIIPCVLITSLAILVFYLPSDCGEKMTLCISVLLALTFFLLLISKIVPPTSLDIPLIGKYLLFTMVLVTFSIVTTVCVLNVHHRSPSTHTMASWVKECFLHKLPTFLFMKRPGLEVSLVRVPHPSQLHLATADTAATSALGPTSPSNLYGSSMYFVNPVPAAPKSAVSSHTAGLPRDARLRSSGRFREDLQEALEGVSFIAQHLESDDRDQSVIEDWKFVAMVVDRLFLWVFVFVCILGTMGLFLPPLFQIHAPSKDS
QUANTITY NAME: Ki (nM)
Note: unit nM is implicit; provide only the numeric part.

Task: Sample CN1C2CCCC1CC(Nc1ccccc1)C2 (stereo not drawn) — what was its Ki?
Result: 826

Task: Data request, read-out Ki, for CN1C2C=C(c3cccnc3)CC1CCC2 (stereo not drawn)
Result: 240

* * *

target: rat α3β4 receptors (Rattus norvegicus, UniProt P04757+P12392); construct: expressed in transfected cells; host or cells: HEK cells (KXα3β4R2); test: [3H]epibatidine competition binding on membranes of HEK cells transfected with rat α3β4 receptors; settings: competition with 0.3 nM [3H]epibatidine; KXα3β4R2 HEK cell membranes; 3 h room temperature; read-out: Binding affinities α3β4 (Ki)
QUANTITY NAME: pKi
Hey, just a heads up that pKi is the negative log base 10 of the concentration in molar.

Task: Reported pKi, compound CN1C2C=C(c3cnc4ccccc4c3)CC1CCC2 (centres unmarked) : ____
Result: 5.58

Task: Return reported pKi; argument: CN1C2CCC1CC(N1C(=O)Cc3ccccc31)C2 (centres unmarked)
Result: 5.55

Task: If you can, please state the reported pKi value of O=C1Cc2ccccc2N1C1CC2CCCC(C1)N2 (centres unmarked) .
Result: 6.38

Task: Give the measured pKi of O=c1cccc2n1C[C@@H]1CNC[C@H]2C1 [Cytisine, reference compound] .
Result: 6.69

Task: Given the compound C1=C(c2cnc3ccccc3c2)CC2CC1N(Cc1ccccc1)C2 (centres unmarked) , what is its reported pKi?
Result: 5.61
